Catalogue of pIC50 readings, one per entry.
target: KRAS G13C (Homo sapiens, UniProt P01116+P62937, G13C); assay: Disruption of BRAF RBD interaction with Ras (FRET / MOA assay, with Cyclophilin A); format: biochemical; conditions: read-out: KRAS G13C FRET data, IC50
Sequence (P01116 1-169 isoform P01116-2 G13C): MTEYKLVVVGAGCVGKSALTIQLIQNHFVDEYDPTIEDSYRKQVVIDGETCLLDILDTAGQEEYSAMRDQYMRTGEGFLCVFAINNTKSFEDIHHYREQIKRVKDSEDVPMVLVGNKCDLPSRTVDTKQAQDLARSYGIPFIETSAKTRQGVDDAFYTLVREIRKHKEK
Sequence (P62937 whole entry): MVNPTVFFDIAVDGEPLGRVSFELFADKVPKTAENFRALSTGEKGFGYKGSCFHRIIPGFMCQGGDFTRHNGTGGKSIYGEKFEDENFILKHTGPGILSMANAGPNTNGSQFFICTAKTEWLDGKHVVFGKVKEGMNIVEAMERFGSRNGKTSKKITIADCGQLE
pIC50: −log10 of the molar value.
Property Name: pIC50

>  <Molecule>
CCN1CC(C(=O)N(C)[C@H](C(=O)N[C@H]2Cc3cc(O)cc(c3)-c3ccc4c(c3)c(c(-c3cccnc3[C@H](C)OC)n4CC)CC(C)(C)COC(=O)[C@@H]3CCCN(N3)C2=O)C(C)C)CC1=O (some centres unmarked) [Example A248]

>  <Tgt>
KRAS G13C (Homo sapiens, UniProt P01116+P62937, G13C)

>  <Property Name>
pIC50

>  <Measured Result>
7.00 to 8.00

$$$$
>  <Molecule>
CCn1c(-c2cnccc2COC)c2c3cc(ccc31)-c1cc(O)cc(c1)C[C@H](NC(=O)[C@H](C(C)C)N1COCC1=O)C(=O)N1CCC[C@H](N1)C(=O)OCC(C)(C)C2 [Example A102]

>  <Tgt>
KRAS G13C (Homo sapiens, UniProt P01116+P62937, G13C)

>  <Property Name>
pIC50

>  <Measured Result>
7.00 to 8.00

$$$$
>  <Molecule>
CCn1c(-c2cnccc2COC)c2c3cc(ccc31)-c1cc(O)cc(c1)C[C@H](NC(=O)[C@H](C(C)C)N(C)C(=O)N1CC(OC)C1)C(=O)N1CCC[C@H](N1)C(=O)OCC(C)(C)C2 [Example A30]

>  <Tgt>
KRAS G13C (Homo sapiens, UniProt P01116+P62937, G13C)

>  <Property Name>
pIC50

>  <Measured Result>
6.00 to 7.00

$$$$
>  <Molecule>
CCn1c(-c2cccnc2[C@H](C)OC)c2c3cc(ccc31)-c1csc(n1)C[C@H](NC(=O)[C@H](C(C)C)N(C)C(=O)N(C)[C@@H]1CCCN(C)C1)C(=O)N1CCC[C@H](N1)C(=O)OCC(C)(C)C2 [Example A587]

>  <Tgt>
KRAS G13C (Homo sapiens, UniProt P01116+P62937, G13C)

>  <Property Name>
pIC50

>  <Measured Result>
6.00 to 7.00

$$$$
>  <Molecule>
CCn1c(-c2cccnc2[C@H](C)OC)c2c3cc(ccc31)-c1csc(n1)C[C@H](NC(=O)[C@H](C(C)C)N(C)C(=O)N1CC3(CC(N4CCOCC4)C3)C1)C(=O)N1CCC[C@H](N1)C(=O)OCC(C)(C)C2 (atropisomer, axis not shown) [Example A486]

>  <Tgt>
KRAS G13C (Homo sapiens, UniProt P01116+P62937, G13C)

>  <Property Name>
pIC50

>  <Measured Result>
6.00 to 7.00

$$$$
>  <Molecule>
CCn1c(-c2cccnc2[C@H](C)OC)c2c3cc(ccc31)-c1csc(n1)C[C@H](NC(=O)[C@H](C(C)C)N(C)C(=O)N1CC3CCN(C)CC31)C(=O)N1CCC[C@H](N1)C(=O)OCC(C)(C)C2 (some centres unmarked) [Example A539]

>  <Tgt>
KRAS G13C (Homo sapiens, UniProt P01116+P62937, G13C)

>  <Property Name>
pIC50

>  <Measured Result>
5.00 to 6.00

$$$$
>  <Molecule>
CCn1c(-c2cccnc2[C@H](C)OC)c2c3cc(ccc31)-c1csc(n1)C[C@H](NC(=O)[C@H](C(C)C)N(C)C(=O)N1CC[C@@H](N(C)C)C1)C(=O)N1CCC[C@H](N1)C(=O)OCC(C)(C)C2 (atropisomer, axis not shown) [Example A566]

>  <Tgt>
KRAS G13C (Homo sapiens, UniProt P01116+P62937, G13C)

>  <Property Name>
pIC50

>  <Measured Result>
6.00 to 7.00

$$$$
>  <Molecule>
CCn1c(-c2cccnc2[C@H](C)OC)c2c3cc(ccc31)-c1cc(O)cc(c1)C[C@H](NC(=O)[C@H](C(C)C)N(C)C(=O)OC1CC1)C(=O)N1CCC[C@H](N1)C(=O)OCC(C)(C)C2 [Example A174]

>  <Tgt>
KRAS G13C (Homo sapiens, UniProt P01116+P62937, G13C)

>  <Property Name>
pIC50

>  <Measured Result>
6.00 to 7.00

$$$$
>  <Molecule>
CCn1c(-c2cccnc2[C@H](C)OC)c2c3cc(ccc31)-c1csc(n1)C[C@H](NC(=O)[C@H](C(C)C)N(C)C(=O)N1CCN(C(=O)CN(C)C)CC1)C(=O)N1CCC[C@H](N1)C(=O)OCC(C)(C)C2 (atropisomer, axis not shown) [Example A290]

>  <Tgt>
KRAS G13C (Homo sapiens, UniProt P01116+P62937, G13C)

>  <Property Name>
pIC50

>  <Measured Result>
6.00 to 7.00

$$$$
>  <Molecule>
CCn1c(-c2cccnc2[C@H](C)OC)c2c3cc(ccc31)-c1csc(n1)C[C@H](NC(=O)[C@H](C(C)C)N(C)C(=O)N1CC(C)(OC)C1)C(=O)N1CCC[C@H](N1)C(=O)OCC(C)(C)C2 [Example A299]

>  <Tgt>
KRAS G13C (Homo sapiens, UniProt P01116+P62937, G13C)

>  <Property Name>
pIC50

>  <Measured Result>
5.00 to 6.00

$$$$
>  <Molecule>
CCn1c(-c2cccnc2[C@H](C)OC)c2c3cc(ccc31)-c1cc(O)cc(c1)C[C@H](NC(=O)[C@H](C(C)C)N(C)C(=O)[C@H]1C[C@H](O)C1)C(=O)N1CCC[C@H](N1)C(=O)OCC(C)(C)C2 [Example A241]

>  <Tgt>
KRAS G13C (Homo sapiens, UniProt P01116+P62937, G13C)

>  <Property Name>
pIC50

>  <Measured Result>
7.00 to 8.00

$$$$
>  <Molecule>
CCn1c(-c2cccnc2[C@H](C)OC)c2c3cc(ccc31)-c1csc(n1)C[C@H](NC(=O)[C@H](C(C)C)N(C)C(=O)N1CC([C@H](C)OC)C1)C(=O)N1CCC[C@H](N1)C(=O)OCC(C)(C)C2 (atropisomer, axis not shown) [Example A279]

>  <Tgt>
KRAS G13C (Homo sapiens, UniProt P01116+P62937, G13C)

>  <Property Name>
pIC50

>  <Measured Result>
6.00 to 7.00

$$$$
>  <Molecule>
CCn1c(-c2cccnc2[C@H](C)OC)c2c3cc(ccc31)-c1csc(n1)C[C@H](NC(=O)[C@H](C(C)C)N(C)C(=O)N1CC[C@@H]1CN(C)C)C(=O)N1CCC[C@H](N1)C(=O)OCC(C)(C)C2 [Example A502]

>  <Tgt>
KRAS G13C (Homo sapiens, UniProt P01116+P62937, G13C)

>  <Property Name>
pIC50

>  <Measured Result>
6.00 to 7.00

$$$$
>  <Molecule>
CCn1c(-c2cccnc2[C@H](C)OC)c2c3cc(ccc31)-c1csc(n1)C[C@H](NC(=O)[C@H](C(C)C)N(C)C(=O)N1CCN3CCOC[C@@H]3C1)C(=O)N1CCC[C@H](N1)C(=O)OCC(C)(C)C2 [Example A547]

>  <Tgt>
KRAS G13C (Homo sapiens, UniProt P01116+P62937, G13C)

>  <Property Name>
pIC50

>  <Measured Result>
6.00 to 7.00

$$$$
>  <Molecule>
CCn1c(-c2cccnc2[C@H](C)OC)c2c3cc(ccc31)-c1csc(n1)C[C@H](NC(=O)[C@H](C(C)C)N(C)C(=O)N1CCCC[C@@H](N(C)C)C1)C(=O)N1CCC[C@H](N1)C(=O)OCC(C)(C)C2 [Example A492]

>  <Tgt>
KRAS G13C (Homo sapiens, UniProt P01116+P62937, G13C)

>  <Property Name>
pIC50

>  <Measured Result>
6.00 to 7.00

$$$$
>  <Molecule>
CCn1c(-c2cccnc2[C@H](C)OC)c2c3cc(ccc31)-c1csc(n1)C[C@H](NC(=O)[C@H](C(C)C)N(C)C(=O)N1CCCC1)C(=O)N1CCC[C@H](N1)C(=O)OCC(C)(C)C2 (atropisomer, axis not shown) [Example A400]

>  <Tgt>
KRAS G13C (Homo sapiens, UniProt P01116+P62937, G13C)

>  <Property Name>
pIC50

>  <Measured Result>
6.00 to 7.00

$$$$
>  <Molecule>
C=CC(=O)N1CC[C@H](C(=O)Nc2ccccc2C(=O)N[C@H]2Cc3cc(O)cc(c3)-c3ccc4c(c3)c(c(-c3cnccc3COC)n4CC)CC(C)(C)COC(=O)[C@@H]3CCCN(N3)C2=O)C1 [Example A229]

>  <Tgt>
KRAS G13C (Homo sapiens, UniProt P01116+P62937, G13C)

>  <Property Name>
pIC50

>  <Measured Result>
7.00 to 8.00

$$$$
